Recorded values, source BindingDB's records for doi:10.1016/j.bmcl.2012.10.080.

target: Phospholipase A2, membrane associated (Homo sapiens, UniProt P14555); assay: Inhibition of sPLA2-IIA (unknown origin)-integrin alphaVbeta3 interaction in human K562 cells pretreated for 30 mins to immobilized sPLA2 before adding cells by phosphatase assay
Sequence (P14555 whole entry): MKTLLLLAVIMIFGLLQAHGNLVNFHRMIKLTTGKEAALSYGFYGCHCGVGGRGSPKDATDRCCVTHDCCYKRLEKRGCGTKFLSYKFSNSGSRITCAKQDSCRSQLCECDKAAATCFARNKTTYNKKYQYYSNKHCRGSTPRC
measure: IC50 (µM)
One number for each entry, in µM.

Prompt line: Please report the recorded IC50 for Cc1nc(NC(=O)c2ccccc2)sc1-c1cc(C(=O)NCC(=O)O)[nH]n1 .
Response line: 241
